# Percent Control values compiled below
- Test system: TNNI3K
- MEASUREMENT_SETUP: Compound Concentration (nM):1000;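 note: KINOMEscan scanMAX binding as percent activity remaining versus control; lower means stronger binding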
Report the value in % with no unit label.

Example entries and their recorded answers appear below.
COMPOUND	RESULT_UNITS	ENDPOINT_VALUE
Nc1ncnc2occ(-c3ccc(NC(=O)Nc4cc(C(F)(F)F)ccc4F)cc3)c12 [GW770249X]	%	40
COc1ccccc1-c1cc(/C=C2\C(=O)Nc3ncc(Br)cc32)cc(Br)c1O [GW442130X]	%	100
CCc1ccc(Oc2nccc(-c3c(-c4ccc(F)cc4)ncn3C3CCNCC3)n2)cc1	%	100

[ask] # returns recorded Percent Control (system: TNNI3K) for O=C1Nc2ccc(C(=O)c3ccco3)cc2C1=Cc1cc(Cl)c(O)c(Cl)c1 [GW406108X]
[reply] 100

[ask] # returns recorded Percent Control (system: TNNI3K) for COc1cc(C=NNc2ncnc3c2cnn3-c2ccccc2)ccc1O [GW513184X]
[reply] 84

----------
- Test system: PRKD3
- MEASUREMENT_SETUP: Compound Concentration (nM):1000
ASSAY_ENDPOINT: Percent Control (%)
Report the value in % with no unit label.

MOLECULE	ENDPOINT_VALUE
O=C1Nc2ccc(C(=O)c3ccco3)cc2C1=Cc1cc(Cl)c(O)c(Cl)c1 [GW406108X]	100

[ask] # returns recorded Percent Control (system: PRKD3) for CC(C)COC(=O)c1ccc2c(c1)/C(=C/Nc1ccc(S(N)(=O)=O)cc1)C(=O)N2 [GW416981X]
[reply] 61

[ask] # returns recorded Percent Control (system: PRKD3) for C[C@@H](Oc1cc(-n2cnc3ccc(OC4CCN(C)CC4)cc32)sc1C(N)=O)c1ccccc1Cl [GSK579289A]
[reply] 70

[ask] # returns recorded Percent Control (system: PRKD3) for Nc1ncnc2occ(-c3ccc(NC(=O)Nc4cc(C(F)(F)F)ccc4F)cc3)c12 [GW770249X]
[reply] 85

[ask] # returns recorded Percent Control (system: PRKD3) for CC1=C(C(=O)Nc2ccc3[nH]ncc3c2)C(c2ccc3ccccc3c2)CC(=O)N1 (stereo not drawn) [GSK270822A]
[reply] 22

[ask] # returns recorded Percent Control (system: PRKD3) for COc1cccc(-n2ncc3c(N/N=C/c4ccncc4)ncnc32)c1 [GW784752X]
[reply] 91

----------
- System: MKNK2
- MEASUREMENT_SETUP: Compound Concentration (nM):1000
ASSAY_ENDPOINT: Percent Control
Respond with the figure and its unit, in that order.

Example entries and their recorded answers appear below.
MOLECULE	Percent Control
NS(=O)(=O)c1ccc(N/N=C2\C(=O)Nc3ccc(C(=O)NCCc4c[nH]cn4)cc32)cc1 [GW300660X]	100%
COc1ccc2c(-c3ccnc(Nc4cccc(OC(F)(F)F)c4)n3)cnn2n1 [GW810372X]	100%

[ask] Given COc1cc2ncn(-c3cc(O[C@H](C)c4ccccc4Cl)c(C(N)=O)s3)c2cc1OC [GSK237701A] , state its recorded Percent Control.
[reply] 77%

[ask] Given COc1cc2ncnc(Nc3ccc4c(cnn4Cc4ccccc4)c3)c2cc1OC.Cl [GW282449A] , state its recorded Percent Control.
[reply] 76%

----------
# Percent Control values compiled below
- Test system: CDK3
- MEASUREMENT_SETUP: Compound Concentration (nM):1000
Report the value in % with no unit label.

MOLECULE	Percent Control [%]
COc1cc(N2CCN(C(C)C)CC2)ccc1Nc1nc(Nc2ccc(F)cc2C(=O)NC[C@@H](O)CO)c2cc[nH]c2n1 [GSK1392956A]	100
COc1cccc(-n2ncc3c(N/N=C/c4ccncc4)ncnc32)c1 [GW784752X]	100
COc1ccc2[nH]c3c4[nH]c5ccc(OC)cc5c4c4c(c3c2c1)C(=O)NC4=O [GW296115X]	100
COc1cc2ncnc(Nc3ccc4c(cnn4Cc4ccccc4)c3)c2cc1OC.Cl [GW282449A]	100

[ask] Given COc1ccc2c(-c3ccnc(Nc4cccc(OC(F)(F)F)c4)n3)cnn2n1 [GW810372X] , state its recorded Percent Control.
[reply] 100

[ask] Given NS(=O)(=O)c1ccc(N/N=C2\C(=O)Nc3ccc(-c4cnco4)cc32)cc1 [GW276655] , state its recorded Percent Control.
[reply] 47

[ask] Given C[C@@H](Oc1cc(-n2cnc3ccc(OC4CCN(C)CC4)cc32)sc1C(N)=O)c1ccccc1Cl [GSK579289A] , state its recorded Percent Control.
[reply] 90

[ask] Given CN(C)CCNC(=O)Nc1ccc(N(C)c2ccnc(Nc3ccc(CS(C)(=O)=O)cc3)n2)cc1.Cl [GW830900A] , state its recorded Percent Control.
[reply] 100

[ask] Given COc1cccc(-c2c[nH]c3c(N/N=C/c4ccncc4)ncnc23)c1 [GW814408X] , state its recorded Percent Control.
[reply] 67
